# Test system: Hepatic stellate cell strain LX-2
# assay text: In vitro inhibition of hepatic fibrosis: expression of LX-2 cell activation marker α-SMA (Western Blot, α-SMA/β-actin)
# Assay type: cell-based, human
# conditions: LX-2 cells, 1 μM, 48 hours, negative control = 100%
*1 amine or outer side, *2 acyl side, *3 side chain or, on linkers, in order; H or OH if unused. Primed or numbered codes have the meaning given here. Where no end group is shown, it is not given here. Side-chain parts run from the residue outwards. [ ]: non-standard residue; d: D form. The star is where a group is joined. C18 diacid = O=C(O)CCCCCCCCCCCCCCCCC(=O)*; γGlu = O=C(O)[C@H](CCC(=O)[*:2])N[*:1]; Stearoyl = CCCCCCCCCCCCCCCCCC(=O)*; Palmitoyl = CCCCCCCCCCCCCCCC(=O)*; PEG2′ = not defined here; Aib = CC(C)(N)C(=O)O
observation type: Relative expression of α-SMA (α-SMA/β-actin, %)
Write down the value, and be sure its unit follows.

Check out these entries, answers already filled in.
{"substance": "His-(D-Ser)-Gln-Gly-Thr-Phe-Thr-Ser-Asp-Lys(PEG2-PEG2-CO(CH2)16CH3)-Ser-Lys-Tyr-Leu-Asp-Aib-Arg-Arg-Ala-Gln-Asp-Phe-Val-Gln-Trp-Leu-Met-Asn-Thr-Gly-Gly-Pro-Ser-Ser-Gly-Ala-Pro-Pro-Pro-Ser-NH2 (H[dS]QGTFTSDK([PEG2′-PEG2′-Stearoyl])SKYLD[Aib]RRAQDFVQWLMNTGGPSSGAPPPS-NH2) [Compound 32]", "test result": "97.14%"}
{"substance": "His-(D-Ser)-Gln-Gly-Thr-Phe-Thr-Ser-Asp-Lys(PEG2-PEG2-γGlu-CO(CH2)14CH3)-Ser-Lys-Tyr-Leu-Asp-Aib-Arg-Arg-Ala-Gln-Asp-Phe-Val-Gln-Trp-Leu-Met-Asn-Thr-Gly-Gly-Pro-Ser-Ser-Gly-Ala-Pro-Pro-Pro-Ser-NH2 (H[dS]QGTFTSDK([PEG2′-PEG2′-γGlu-Palmitoyl])SKYLD[Aib]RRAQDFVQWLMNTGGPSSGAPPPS-NH2) [Compound 4]", "test result": "88.50%"}
{"substance": "His-(D-Ser)-Gln-Gly-Thr-Phe-Thr-Ser-Asp-Tyr-Ser-Lys-Tyr-Leu-Asp-Glu-Lys-Ala-Ala-Lys(PEG2-PEG2-γGlu-CO(CH2)14CH3)-Glu-Phe-Ile-Glu-Trp-Leu-Leu-Arg-Ala-NH2 (H[dS]QGTFTSDYSKYLDEKAAK([PEG2′-PEG2′-γGlu-Palmitoyl])EFIEWLLRA-NH2) [Compound 23]", "test result": "95.91%"}

Value of measured Relative expression of α-SMA (α-SMA/β-actin, %) for the entry His-(D-Ser)-Gln-Gly-Thr-Phe-Thr-Ser-Asp-Tyr-Ser-Lys-Tyr-Leu-Asp-Ser-Lys(PEG2-PEG2-γGlu-CO(CH2)16CO2H)-Ala-Ala-His-Asp-Phe-Val-Glu-Trp-Leu-Leu-Asn-Gly-Gly-Pro-Ser-Ser-Gly-Ala-Pro-Pro-Pro-Ser-NH2 (H[dS]QGTFTSDYSKYLDSK([PEG2′-PEG2′-γGlu-C18 diacid])AAHDFVEWLLNGGPSSGAPPPS-NH2) [Compound 21] : 97.66%

Value of measured Relative expression of α-SMA (α-SMA/β-actin, %) for the entry His-(D-Ser)-Gln-Gly-Thr-Phe-Thr-Ser-Asp-Tyr-Ser-Lys(PEG2-PEG2-γGlu-CO(CH2)14CH3)-Lys-Leu-Asp-Aib-Arg-Arg-Ala-Gln-Asp-Phe-Val-Gln-Trp-Leu-Met-Asn-Thr-Gly-Gly-Pro-Ser-Ser-Gly-Ala-Pro-Pro-Pro-Ser-NH2 (H[dS]QGTFTSDYSK([PEG2′-PEG2′-γGlu-Palmitoyl])KLD[Aib]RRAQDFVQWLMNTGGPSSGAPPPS-NH2) [Compound 1] : 75.26%

###

Below, each entry is listed alongside its reported Relative expression of α-SMA (α-SMA/β-actin, %).
# Tested on: Hepatic stellate cell strain LX-2
# assay text: In vitro inhibition of hepatic fibrosis: expression of LX-2 cell activation marker α-SMA (Western Blot, α-SMA/β-actin)
# Type: cell-based, human
# conditions: LX-2 cells, 1 μM, 48 hours, negative control = 100%
# Excerpt: Hepatic stellate cell strain LX-2 was selected to study and observe the effect of different doses of test substances on the expression of LX-2 cell activation marker ζ-SMA. […]
*1 amine or outer side, *2 acyl side, *3 side chain or, on linkers, in order; H or OH if unused. Primed or numbered codes have the meaning given here. Where no end group is shown, it is not given here. Side-chain parts run from the residue outwards. [ ]: non-standard residue; d: D form. The star is where a group is joined. γGlu = O=C(O)[C@H](CCC(=O)[*:2])N[*:1]; Stearoyl = CCCCCCCCCCCCCCCCCC(=O)*; Palmitoyl = CCCCCCCCCCCCCCCC(=O)*; PEG2′ = not defined here; Aib = CC(C)(N)C(=O)O
Write down the value, and be sure its unit follows.

{"substance": "His-Aib-Gln-Gly-Thr-Phe-Thr-Ser-Asp-Lys(PEG2-PEG2-γGlu-CO(CH2)14CH3)-Ser-Lys-Tyr-Leu-Asp-Glu-Arg-Arg-Ala-Gln-Asp-Phe-Val-Gln-Trp-Leu-Leu-Asp-Gly-Gly-Pro-Ser-Ser-Gly-Ala-Pro-Pro-Pro-Ser-NH2 (H[Aib]QGTFTSDK([PEG2′-PEG2′-γGlu-Palmitoyl])SKYLDERRAQDFVQWLLDGGPSSGAPPPS-NH2) [Compound 16]", "test result": "48.88%"}

Please look at the following substance next.
Value of measured Relative expression of α-SMA (α-SMA/β-actin, %) for the entry His-Aib-Gln-Gly-Thr-Phe-Thr-Ser-Asp-Lys(PEG2-PEG2-γGlu-CO(CH2)16CH3)-Ser-Lys-Tyr-Leu-Asp-Aib-Arg-Arg-Ala-Gln-Asp-Phe-Val-Gln-Trp-Leu-Leu-Asp-Gly-Gly-Pro-Ser-Ser-Gly-Ala-Pro-Pro-Pro-Ser-NH2 (H[Aib]QGTFTSDK([PEG2′-PEG2′-γGlu-Stearoyl])SKYLD[Aib]RRAQDFVQWLLDGGPSSGAPPPS-NH2) [Compound 12] : 72.99%

###

# Test system: Hepatic stellate cell strain LX-2
# assay text: In vitro inhibition of hepatic fibrosis: expression of LX-2 cell activation marker α-SMA (Western Blot, α-SMA/β-actin)
# Type: cell-based, human
# conditions: LX-2 cells, 1 μM, 48 hours, negative control = 100%
*1 amine or outer side, *2 acyl side, *3 side chain or, on linkers, in order; H or OH if unused. Primed or numbered codes have the meaning given here. Where no end group is shown, it is not given here. Side-chain parts run from the residue outwards. [ ]: non-standard residue; d: D form. The star is where a group is joined. γGlu = O=C(O)[C@H](CCC(=O)[*:2])N[*:1]; Stearoyl = CCCCCCCCCCCCCCCCCC(=O)*; Palmitoyl = CCCCCCCCCCCCCCCC(=O)*; PEG2′ = not defined here
observation type: Relative expression of α-SMA (α-SMA/β-actin, %)
# number only, unit % dropped from output

{"substance": "His-(D-Ser)-Gln-Gly-Thr-Phe-Thr-Ser-Asp-Tyr-Ser-Lys-Tyr-Leu-Asp-Lys(PEG2-PEG2-γGlu-CO(CH2)14CH3)-Arg-Arg-Ala-Gln-Asp-Phe-Val-Gln-Trp-Leu-Met-Asn-Thr-Gly-Gly-Pro-Ser-Ser-Gly-Ala-Pro-Pro-Pro-Ser-NH2 (H[dS]QGTFTSDYSKYLDK([PEG2′-PEG2′-γGlu-Palmitoyl])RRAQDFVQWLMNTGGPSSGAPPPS-NH2) [Compound 6]", "unit label": "%", "test result": 41.19}

Value of measured Relative expression of α-SMA (α-SMA/β-actin, %) for the entry His-(D-Ser)-Gln-Gly-Thr-Phe-Thr-Ser-Asp-Tyr-Ser-Lys-Tyr-Leu-Asp-Glu-Lys-Ala-Ala-Lys(PEG2-PEG2-γGlu-CO(CH2)16CH3)-Glu-Phe-Ile-Glu-Trp-Leu-Leu-Asn-Gly-Gly-Pro-Ser-Ser-Gly-Ala-Pro-Pro-Pro-Ser-NH2 (H[dS]QGTFTSDYSKYLDEKAAK([PEG2′-PEG2′-γGlu-Stearoyl])EFIEWLLNGGPSSGAPPPS-NH2) [Compound 28] : 87.62

###

# System: Hepatic stellate cell strain LX-2
# assay text: In vitro inhibition of hepatic fibrosis: expression of LX-2 cell activation marker α-SMA (Western Blot, α-SMA/β-actin)
# Format: cell-based, human
# conditions: LX-2 cells, 1 μM, 48 hours, negative control = 100%
*1 amine or outer side, *2 acyl side, *3 side chain or, on linkers, in order; H or OH if unused. Primed or numbered codes have the meaning given here. Where no end group is shown, it is not given here. Side-chain parts run from the residue outwards. [ ]: non-standard residue; d: D form. The star is where a group is joined. C18 diacid = O=C(O)CCCCCCCCCCCCCCCCC(=O)*; C16 diacid = O=C(O)CCCCCCCCCCCCCCC(=O)*; γGlu = O=C(O)[C@H](CCC(=O)[*:2])N[*:1]; Palmitoyl = CCCCCCCCCCCCCCCC(=O)*; PEG2′ = not defined here; Aib = CC(C)(N)C(=O)O
observation type: Relative expression of α-SMA (α-SMA/β-actin, %)
# number only, unit % dropped from output

Check out these entries, answers already filled in.
{"substance": "His-(D-Ser)-Gln-Gly-Thr-Phe-Thr-Ser-Asp-Lys(PEG2-PEG2-CO(CH2)16CO2H)-Soer-Lys-Tyr-Leu-Asp-Aib-Arg-Arg-Ala-Gln-Asp-Phe-Val-Gln-Trp-Leu-Met-Asn-Thr-Gly-Gly-Pro-Ser-Ser-Gly-Ala-Pro-Pro-Pro-Ser-NH2 (H[dS]QGTFTSDK([PEG2′-PEG2′-C18 diacid])SKYLD[Aib]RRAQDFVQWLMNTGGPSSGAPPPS-NH2) [Compound 30]", "target system": "Hepatic stellate cell strain LX-2", "test result": 85.53}
{"substance": "His-(D-Ser)-Gln-Gly-Thr-Phe-Thr-Ser-Asp-Tyr-Ser-Lys(PEG2-PEG2-CO(CH2)14CH3)-Lys-Leu-Asp-Aib-Arg-Arg-Ala-Gln-Asp-Phe-Val-Gln-Trp-Leu-Met-Asn-Thr-Gly-Gly-Pro-Ser-Ser-Gly-Ala-Pro-Pro-Pro-Ser-NH2 (H[dS]QGTFTSDYSK([PEG2′-PEG2′-Palmitoyl])KLD[Aib]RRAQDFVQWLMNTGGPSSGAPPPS-NH2) [Compound 9]", "target system": "Hepatic stellate cell strain LX-2", "test result": 75.86}

Value of measured Relative expression of α-SMA (α-SMA/β-actin, %) for the entry His-Aib-Gln-Gly-Thr-Phe-Thr-Ser-Asp-Lys(PEG2-PEG2-γGlu-CO(CH2)14CO2H)-Ser-Lys-Tyr-Leu-Asp-Glu-Arg-Arg-Ala-Gln-Asp-Phe-Val-Gln-Trp-Leu-Leu-Asp-Gly-Gly-Pro-Ser-Ser-Gly-Ala-Pro-Pro-Pro-Ser-NH2 (H[Aib]QGTFTSDK([PEG2′-PEG2′-γGlu-C16 diacid])SKYLDERRAQDFVQWLLDGGPSSGAPPPS-NH2) [Compound 13] : 97.93
